This section presents binders with their documented binding signal values.
# target.of.assay: T1, RBFOX1 RRM (Homo sapiens, UniProt Q9NWB1 109-208)
# T1 sequence: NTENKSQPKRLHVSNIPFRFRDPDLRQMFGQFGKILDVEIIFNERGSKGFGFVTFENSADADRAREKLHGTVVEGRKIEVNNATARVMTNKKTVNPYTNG
# method.description: EMSA; HiTS-Eq, 1 nM pool, 10 min; buffer printed only for the single-RNA assays: 10 mM Tris pH 7.5, 150 mM NaCl, 3.4 mM EDTA, 0.001% NP-40, 30 C
# particulars: tags: His6 N-terminal (pET28a); label: 5' 32P
Whole data set: some 16,000 sequences, median “ka relative to ugcaugu” near 0.0091, cut for the highest 2% near 0.032. The entries come from a sample that favours the highest values as a whole.
readout.label: binding signal

binder="CGGGCAG (DNA:RNA) RNA: GGGAGACCGGAAUUCAGAUUGUCCCGGGCAGUUAAAUCCCGUCGUAGCCACCA DNA 1: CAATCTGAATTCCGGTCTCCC DNA 2: TGGTGGCTACGACGGGATT" observed_measurement="0.0252 KA relative to UGCAUGU"
binder="UGCCUUG (DNA:RNA) RNA: GGGAGACCGGAAUUCAGAUUGUCCUGCCUUGUUAAAUCCCGUCGUAGCCACCA DNA 1: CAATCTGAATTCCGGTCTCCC DNA 2: TGGTGGCTACGACGGGATT" observed_measurement="0.0505 KA relative to UGCAUGU"
binder="UCAACCU (DNA:RNA) RNA: GGGAGACCGGAAUUCAGAUUGUCCUCAACCUUUAAAUCCCGUCGUAGCCACCA DNA 1: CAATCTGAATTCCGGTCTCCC DNA 2: TGGTGGCTACGACGGGATT" observed_measurement="0.00233 KA relative to UGCAUGU"
binder="CUUGGUG (DNA:RNA) RNA: GGGAGACCGGAAUUCAGAUUGUCCCUUGGUGUUAAAUCCCGUCGUAGCCACCA DNA 1: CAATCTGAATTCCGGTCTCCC DNA 2: TGGTGGCTACGACGGGATT" observed_measurement="0.0206 KA relative to UGCAUGU"

// data source = paper PMC9911399
